Each entry below carries its recorded binding signal.
biological target: VEGF-165 (Homo sapiens, UniProt P15692-4 P15692-4:27-191); test: SPR; 10 nM VEGF-165, 930 s; settings: tags: PeproTech; chain copies: 2 (dimer, concentrations stated in terms of dimer)
Sequence (P15692 other isoform, or with tags, fused parts or gaps): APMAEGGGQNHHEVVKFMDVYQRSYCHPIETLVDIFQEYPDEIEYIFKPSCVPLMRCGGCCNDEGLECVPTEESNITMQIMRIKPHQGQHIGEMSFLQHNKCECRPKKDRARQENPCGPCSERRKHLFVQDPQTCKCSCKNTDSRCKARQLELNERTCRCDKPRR
Measured attribute: binding signal (bound ratio)

| Binder | Measured attribute | Value units | Observed measurement |
| --- | --- | --- | --- |
| VG08A-57 (ssDNA) DNA: ATCAGTCCACGAGATGGATGGTAGTGGCCGAACGGGGGGGATGGAGAAGCTGGCTG | binding signal | bound ratio | 0.01 |
| VG01A-57 (ssDNA) DNA: ATCAGTCCACAAAGTGCTGGGTCCGAATGGCGGGGGGTTAGGCCTCTTTGGGGCGG | binding signal | bound ratio | 0.37 |
| VG02aA-57 (ssDNA) DNA: ATCAGTCCACATCGAGCGTGAGGTCCGAAAGGCGACTCTTATAACATCAAGTAATG | binding signal | bound ratio | 0.01 |
| VG02bA-57 (ssDNA) DNA: ATCAGTCCACATACGCGGGGGTGTTGAAGGGTTAGTCGGAAGTAGTGTGTACAGAG | binding signal | bound ratio | 0.31 |
